Origin of the recorded values: the MegaScale stability set (Tsuboyama et al. 2023)

B1: EEHEE_rd4_0647 (parent)
chain: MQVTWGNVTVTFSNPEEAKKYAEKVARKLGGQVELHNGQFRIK

Variants of: B1
assay: folding stability dG (cDNA display proteolysis); higher = more stable
applied-conditions: PBS, room temperature

| mutant-name | folding stability dG (kcal/mol) |
| --- | --- |
| R41N | 2.37 |
| N7Y | 2.54 |
| K24I | 2.75 |
| G38T | 1.36 |
| A22D | -0.372 |
| I42N | 0.564 |
| T4H | 2.54 |
| R41Q | 2.66 |
| V33K | 0.686 |
| V33T | 1.22 |
| Y21R | 0.486 |
| G6I | 1.59 |
| L35E | 2.5 |
| V33G | 0.276 |
| L29V | 2.77 |
| I42E | 0.453 |
| E16S | 2.68 |
| Q32N | 2.4 |
| F12E | -0.423 |
| W5N | 1.12 |
| W5C | 3.09 |
| P15M | 3.03 |
